Target: Itk (Homo sapiens, UniProt Q08881)
Construct: Kinases are expressed as either kinase domains or full length constructs; made in house
Sequence (Q08881 whole entry, species assumed, the tested form may be a part): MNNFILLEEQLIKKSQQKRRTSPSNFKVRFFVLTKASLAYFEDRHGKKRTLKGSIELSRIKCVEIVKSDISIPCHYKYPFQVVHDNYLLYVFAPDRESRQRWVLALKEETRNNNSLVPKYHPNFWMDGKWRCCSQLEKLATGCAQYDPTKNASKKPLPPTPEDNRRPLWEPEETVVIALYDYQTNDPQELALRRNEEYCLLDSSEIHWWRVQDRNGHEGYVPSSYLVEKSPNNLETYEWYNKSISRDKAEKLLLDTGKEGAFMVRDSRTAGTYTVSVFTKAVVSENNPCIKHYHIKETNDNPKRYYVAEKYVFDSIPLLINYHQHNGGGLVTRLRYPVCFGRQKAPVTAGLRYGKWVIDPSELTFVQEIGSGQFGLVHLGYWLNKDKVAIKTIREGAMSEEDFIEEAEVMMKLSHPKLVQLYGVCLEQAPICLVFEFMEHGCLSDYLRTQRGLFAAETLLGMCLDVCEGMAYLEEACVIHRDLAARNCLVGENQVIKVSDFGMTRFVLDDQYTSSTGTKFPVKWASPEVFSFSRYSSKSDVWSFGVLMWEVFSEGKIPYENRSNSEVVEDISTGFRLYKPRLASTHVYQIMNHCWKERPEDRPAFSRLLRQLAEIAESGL
Test: Kinase inhibition assay (33P transfer), Itk
Type: biochemical
Conditions: read-out: Itk-1
pIC50: −log10 of the molar value.
assay-endpoint: pIC50

Worked set:
COc1cc(Nc2ncnc(-n3c(Nc4ccc(N(C)C)cc4)nc4ccccc43)n2)cc(OC)c1OC [Compound 1051]
5.17 to 5.33
Clc1cccc(Nc2ncnc(Nc3cc(-c4ccccc4)n[nH]3)n2)c1 [Compound 1009]
5.18 to 5.96
Cc1cccc(Nc2ncnc(N(C)c3cccc(Cl)c3)n2)c1 [Compound 709]
< 4.86

Please give the documented pIC50 of COC(=O)Cc1cccc(Nc2ncnc(-n3c(NCc4ccccc4)nc4ccccc43)n2)c1 [Compound 545]
< 5.01
